# targetOrSystem: T1, human PD-1-His (human, UniProt Q15116 25-170)
# T1 construct: extracellular domain; not shown: His tag
# T1 sequence (Q15116 25-170): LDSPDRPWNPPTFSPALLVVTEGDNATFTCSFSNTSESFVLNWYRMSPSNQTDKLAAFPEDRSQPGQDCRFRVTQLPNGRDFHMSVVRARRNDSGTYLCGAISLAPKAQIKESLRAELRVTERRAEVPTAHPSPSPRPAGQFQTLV
# assayComment: BLI (Octet ForteBio), antibody on ProA biosensor, PD-1-His in solution
metricName: koff (s⁻¹)
# output: bare number, implied unit s⁻¹

binder	koff (s⁻¹)
chimeric antibody 29C6-CH (antibody, human IgG4 S228P, kappa, V domains shown, Murine 29C6 variable regions fused to the IgG4 (S228P) heavy chain constant region and the human kappa constant region) VH: QVQLEESGPELVKPGASVKISCKTSGYTFTEYTIYWVKQSHGKSLEWIGGINPKNGATLYNQKFKVKATLTVDKSSSTAYMELRSLTSEDSAVYYCVRDYHGNSHDSMDYWGQGTSVTVSS VL: QIVLTQSPAIMSASPGEKVTITCSASSSVSYMHWFRQKPGTSPKLWIYYTSNLASGVPAHFSGSGSGTSYSLTISRMEAEDAATYYCQQRSDYPPTFGGGTKLEIKR	0.000166
humanized antibody 29C6-HZ2 (antibody, human IgG4 S228P, kappa, V domains shown) VH: QVQLVQSGVEVKKPGASVKVSCKTSGYTFTEYTIYWVRQAPGQGLEWIGGINPKNGATLYNQKFKVRATLTVDKSTTTAYMELKSLQFDDTAVYYCVRDYHGNSHDSMDYWGQGTTVTVSS VL: EIVLTQSPATLSLSPGERATLSCSASSSVSYMHWFQQKPGQAPRLLIYYTSNLASGVPARFSGSGSGTDYTLTISSLEPEDFAVYYCQQRSDYPPTFGGGTKVEIKR	0.000454
humanized antibody 91D5-HZ1 (antibody, human IgG4 S228P, kappa, V domains shown) VH: EVQLVQSGAEVKKPGASVKVSCKASGYTFTDYYMNWVREAPGQGLEWMGEINPKYGDTTYAQKLQGRVTLTVDKSTSTAYMELSSLRSDDTAVYYCAKGIRLFDSWGQGTLVTVSS VL: DIQLTQSPSSLSASVGDRVTITCRPSGNVHNYFAWYQQKPGKSPKLLVYNAKTLAEGVPSRFSGSGSGTDYTLTISSLQPEDFATYYCHHYYTAPFTFGGGTKVEIKR	0.00053

Task: Requested field: koff. Item: chimeric antibody 91D5-CH (antibody, human IgG4 S228P, kappa, V domains shown, Murine 91D5 variable regions fused to the IgG4 (S228P) heavy chain constant region and the human kappa constant region) VH: EVQLQQSGPELVKPGASVKISCRASGYTFTDYYMNWVKESHGKSLEWIGEINPKYGDTTYNQKFKDKATLTVDKSSSTASVELRSLTSEDSAVYYCAKGIRLFDSWGQGTTVTVSS VL: DIQLTQSPASLSASVGETVTITCRPSGNVHNYFAWYQQKQGKSPQLLVYNAKTLAEGVPSRFSGSGSGTQYSLKINSLQPEDFGTYYCHHYYTAPFTFGSGTKLEIKR
Output: 0.000177
